Assay: qHTS for differential inhibitors of proliferation of Plasmodium falciparum line Dd2 (AID 1882); also: nearly all actives have a fitted effect of over 65% in size; also: potency is read from the fitted curve at half-maximal effect
Conditions: Plasmodium falciparum Dd2 proliferation inhibition; series mostly up to 28.7 µM
Records with an inconclusive call do not appear. The source made the active and inactive calls. Calls follow the shape of the dose curve; as a rule, active = well fitted inhibition curve with a large enough effect; inconclusive = small, poorly fitted or top-dose-only effect; inactive = flat fitted curve, though single readings scatter.
observable: Potency

>  <compound>
CNC(=O)OCC[N+](C)(C)C

>  <Potency>
inactive

$$$$
>  <compound>
COc1ccc2[nH]cc(CCN)c2c1

>  <Potency>
inactive

$$$$
>  <compound>
c1ccc2c(c1)[I+]c1ccccc1-2

>  <Potency>
1 µM (active)

$$$$
>  <compound>
CC(C)NP(=O)(NC(C)C)OP(=O)(NC(C)C)NC(C)C

>  <Potency>
inactive

$$$$

Problem: Which Potency is listed for COC(=O)N1CCN(C(=O)Cc2ccc(Cl)c(Cl)c2)C(CN2CCCC2)C1 (stereo not drawn) ?
Result: 7.94 µM (active)

Problem: Which Potency is listed for `CCCn1c(C)c(C(=O)c2ccc3ccccc3c2)c2ccccc21` ?
Result: inactive

Problem: Which Potency is listed for `CN1CCC(c2c[nH]c3ccc(O)cc23)CC1` ?
Result: inactive

Problem: Which Potency is listed for `CCCCCCC(C)(C)c1ccc([C@@H]2C[C@H](O)CC[C@H]2CCCO)c(O)c1` ?
Result: 4.47 µM (active)

// data source = PubChem BioAssay (NCATS)
